Values compiled from ChEMBL document CHEMBL1201862.

system: OVCAR-5; test: NCI tumour cell line growth inhibition, 48 h
The source made the active and inactive calls. Cut-off read from the data, not from the text of the source: active = GI50 up to about 1.1 µM and inactive = higher.
Respond with a class label; see 1 (yes) = active, 0 (no) = inactive

{"columns": ["compound", "label.value"],
 "data": [
  ["CC(=O)N1CC(=O)N2C(=O)/C(=C/c3ccc(Cl)cc3)N=C12", "0 (no)"],
  ["CC(=O)OCC(OC(C)=O)C(OC(C)=O)C(OC(C)=O)C(/C=N\\Nc1nc2ccccc2c(=O)[nH]1)OC(C)=O (configuration not stated)", "0 (no)"]
]}

Then this compound:
Q. Test call, this compound: CC(SC(=S)N1CCCCC1)C(=O)Nc1nnc(-c2ccc(Cl)cc2)o1 (configuration not stated)
A. 0 (no)
